- method: Stability of alkylated amino acid in cleaning composition 1 by HPLC-UV peak area vs t=0
- Format: physicochemical
- experimental setup: 8 weeks, 70° F. (21° C.), HPLC-UV peak area relative to t=0
metric name: % at t = 8 w (70° F.) (%)

Known results for compounds:
{"compound": "CCCCCCCCCCCCNC(=O)C(N)Cc1ccc(O)cc1 (centres unmarked)", "% at t = 8 w (70° F.) / %": 94}
{"compound": "CCCCCCCCCCCCNC(CCCNC(=N)N)C(=O)O (centres unmarked)", "% at t = 8 w (70° F.) / %": 100}
{"compound": "CCCCCCCCCCCCNC(=O)C(N)CCCNC(=N)N (centres unmarked)", "% at t = 8 w (70° F.) / %": 112}
{"compound": "CCCCCCCCCCCCOC(=O)CN", "% at t = 8 w (70° F.) / %": 0}

1. CCCCCCCCCCCCOC(=O)C(N)Cc1ccccc1 (centres unmarked)
2. CCCCCCCCCCCCNC(CCCCN)C(=O)O (centres unmarked)
Please indicate which entry, 1 or 2 , has the lower recorded % at t = 8 w (70° F.) value. Identify your pick by its label. 1

A. CCCCCCCCCCCCNC(Cc1ccc(O)cc1)C(=O)OCC (centres unmarked)
B. CCCCCCCCCCCCNC(Cc1ccccc1)C(=O)OCC (centres unmarked)
Compare A and B by numeric % at t = 8 w (70° F.) and name the larger one. Identify your pick by its label. B

----------
- method: Stability of alkylated amino acid in cleaning composition 1 by HPLC-UV peak area vs t=0
- Assay type: physicochemical
- experimental setup: 8 weeks, 70° F. (21° C.), HPLC-UV peak area relative to t=0
metric name: % at t = 8 w (70° F.) (%)

{"compound": "CCCCCCCCCCCCOC(=O)C(N)Cc1ccc(O)cc1 (stereo not drawn)", "metric name": "% at t = 8 w (70° F.)", "reported value": 56}
{"compound": "CCCCCCCCCCCCNC(CC(C)C)C(=O)OCC (stereo not drawn)", "metric name": "% at t = 8 w (70° F.)", "reported value": 85}
{"compound": "CCCCCCCCCCCCNC(=O)C(N)Cc1ccccc1 (stereo not drawn)", "metric name": "% at t = 8 w (70° F.)", "reported value": 101}
{"compound": "CCCCCCCCCCCCNC(=O)C(N)CCCCN (stereo not drawn)", "metric name": "% at t = 8 w (70° F.)", "reported value": 89}
{"compound": "CCCCCCCCCCCCNC(=O)C(N)Cc1c[nH]c2ccccc12 (stereo not drawn)", "metric name": "% at t = 8 w (70° F.)", "reported value": 135}

A. CCCCCCCCCCCCOC(=O)C(N)CC(C)C (stereo not drawn)
B. CCCCCCCCCCCC(=O)NCCCCC(N)C(=O)OCC (stereo not drawn)
Please indicate which entry, A or B , has the lower recorded % at t = 8 w (70° F.) value. Identify your pick by its label. B
(B: 4%, A: 36%)

1. CCCCCCCCCCCCNC(=O)CN
2. CCCCCCCCCCCCNCC(=O)OCC
Please indicate which entry, 1 or 2 , has the lower recorded % at t = 8 w (70° F.) value. Identify your pick by its label. 2
